The measurements presented in this section are drawn from patent US9981909B2.

tested system: UniProt P32305
protocol summary: r5-HT7 binding assay, competitive radioligand binding with [3H]5-CT
test settings: rat 5-HT7 receptor, HEK-293 membranes
Structures can show the parent of a compound that is named as a salt.
metric name: pKi
Numbers only, as −log10 of the molar value.

compound	tested system	metric name	data value
Cc1cc(COc2ccc(Cl)cc2OC2CNC2)c(C(F)(F)F)o1	UniProt P32305	pKi	6.15
CC(C)N1CC(Oc2cc(Br)ccc2OCc2cccc(F)c2)C1	UniProt P32305	pKi	8.10
CN1CC[C@@H](Oc2cc(Cl)ccc2OCc2ccccc2Cl)C1	UniProt P32305	pKi	7.44
Fc1ccc(OCc2cccc(Cl)c2)c(OC2CNC2)c1 [Example 202, hydrochloride]	UniProt P32305	pKi	7.18
FC(F)(F)c1ccc(COc2ccc(Cl)cc2OC2CNC2)cn1	UniProt P32305	pKi	6.70

# batch: return pKi for each of the 2 compounds below
1. Clc1ccc(C2(COc3ccc(Cl)cc3OC3CNC3)CCC2)cc1
2. CC(Oc1ccc(Cl)cc1OC1CNC1)c1cccc(OC(F)(F)F)c1 (racemic)

**A:**
7.47
7.20

For every item below, please supply its pKi.
1. CCN1CC(Oc2cc(Br)ccc2OCc2cccc(F)c2)C1
2. CC(Oc1ccc(Cl)cc1OC1CNC1)c1ccc(Cl)cc1 (racemic)
3. C[C@H](Oc1ccc(Cl)cc1OC1CNC1)c1cccc(C(F)(F)F)c1 [Example 102, trifluoroacetate]
4. Clc1cccc(COc2ccc(Br)cc2OC2CCNCC2)c1
5. Cc1ccc2c(c1)C(Oc1ccc(Br)cc1OC1CNC1)CC2 (racemic)
6. FCC(Oc1ccc(Cl)cc1OC1CNC1)c1ccccc1 (stereo not drawn)
7. Clc1ccc(OCc2ccccc2)c(OC2CCCNC2)c1 (racemic)

**A:**
1. 8.30
2. 7.38
3. 6.42
4. 7.96
5. 6.60
6. 6.67
7. 6.76

Batch request: pKi for each of the following compounds.
1. Clc1cccc(COc2ccc(Br)cc2OC2CNC2)c1
2. Clc1ccc(OC2CCc3ccc(Cl)cc32)c(OC2CNC2)c1 (racemic)

**A:**
7.92
7.77

Can you give me pKi for all of these, one by one?
1. FC(F)(F)c1ccc(OCc2ccccc2)c(OC2CNC2)c1 [Example 201, hydrochloride]
2. CN1CC(Oc2cc(Cl)ccc2OCc2cccc(Cl)c2)C1

**A:**
1. 7.51
2. 8.22

###

tested system: UniProt:P41595
Sequence (P41595 whole entry): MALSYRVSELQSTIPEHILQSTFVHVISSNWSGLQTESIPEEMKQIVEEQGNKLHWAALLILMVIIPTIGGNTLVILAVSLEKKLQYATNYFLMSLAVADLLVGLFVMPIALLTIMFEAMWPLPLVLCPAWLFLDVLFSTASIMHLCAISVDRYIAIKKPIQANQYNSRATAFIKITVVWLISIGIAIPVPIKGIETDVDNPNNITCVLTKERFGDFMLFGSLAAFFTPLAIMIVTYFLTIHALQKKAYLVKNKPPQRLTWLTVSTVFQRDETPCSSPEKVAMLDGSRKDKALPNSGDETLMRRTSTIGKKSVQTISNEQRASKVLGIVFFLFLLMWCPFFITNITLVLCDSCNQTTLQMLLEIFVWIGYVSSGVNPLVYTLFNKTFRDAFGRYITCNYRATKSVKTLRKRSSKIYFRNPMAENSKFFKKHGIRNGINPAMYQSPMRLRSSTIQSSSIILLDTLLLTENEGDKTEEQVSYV
protocol summary: h5HT2B binding
Assignment: determine reported pKi for the given compounds.
Answers are plain numbers, as −log10 of the molar value.

Check out these entries, answers already filled in.
smiles input	data value
Cc1ccc(Oc2cc(Cl)ccc2O[C@@H]2CCNC2)cc1	7.19
Cc1ccc(Oc2cc(Cl)ccc2O[C@@H]2CCN(C)C2)cc1	6.89
Cc1cccc(Oc2cc(Cl)ccc2O[C@H]2CCNC2)c1	6.80

Please examine the following record next.
**Q:** Query for UniProt:P41595: what pKi does the record show for `CN1CC[C@@H](Oc2ccc(Cl)cc2Oc2ccc(F)cc2)C1` ?
**A:** 7.01

###

tested system: rat 5-HT7 receptor (Rattus norvegicus (Rat))
Sequence (P32305 1-435): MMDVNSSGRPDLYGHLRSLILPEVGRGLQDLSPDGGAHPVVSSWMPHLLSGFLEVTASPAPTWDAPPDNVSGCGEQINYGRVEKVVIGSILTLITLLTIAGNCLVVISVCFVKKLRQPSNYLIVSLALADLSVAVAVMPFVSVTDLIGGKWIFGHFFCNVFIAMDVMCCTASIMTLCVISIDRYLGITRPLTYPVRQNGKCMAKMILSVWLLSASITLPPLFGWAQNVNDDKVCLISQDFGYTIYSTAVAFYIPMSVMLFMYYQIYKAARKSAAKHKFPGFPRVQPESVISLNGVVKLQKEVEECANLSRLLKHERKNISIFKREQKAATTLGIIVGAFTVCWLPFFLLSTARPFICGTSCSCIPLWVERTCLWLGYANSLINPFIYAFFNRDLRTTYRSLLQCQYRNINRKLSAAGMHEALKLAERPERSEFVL
protocol summary: r5-HT7 binding assay, competitive radioligand binding with [3H]5-CT
test settings: rat 5-HT7 receptor, HEK-293 membranes
Kindly supply the reported pKi values for the records listed here.
Answers are plain numbers, as −log10 of the molar value.

compound	data value
CCCN1CC(Oc2cc(Br)ccc2OCc2cccc(F)c2)C1	8.40

Batch of 8 compounds: report pKi for each.
1. CCOC(=O)c1ccc(COc2ccc(Cl)cc2OC2CNC2)o1
2. ON=C(COc1ccc(Cl)cc1OC1CNC1)c1ccccc1
3. CCOC(=O)c1cc(COc2ccc(Cl)cc2OC2CNC2)oc1C(F)(F)F
4. Brc1ccc(OC2CCc3ccccc32)c(OC2CNC2)c1 (racemic)
5. FC(F)(F)c1ccc(COc2ccc(Cl)cc2OC2CNC2)c(C(F)(F)F)c1
6. CC(Oc1ccc(Cl)cc1OC1CNC1)c1ccc(C(F)(F)F)c(F)c1 (racemic)
7. FCC(Oc1ccc(Cl)cc1OC1CCNCC1)c1ccccc1 (racemic)
8. FC(F)(F)c1cccc(COc2ccc(Cl)cc2OC2CNC2)c1

**A:**
[6.77, 7.72, 5.30, 7.40, 5.50, 7.05, 6.52, 8.15]
